Tested on: MDA/LCC6^MDR1
Assay: Reversal of MDR in P-gp-expressing cell line
Assay type: cell-based, human
Settings: Homo sapiens; MDA/LCC6^MDR1 breast; read-out: Formula 2 compound EC50, reversal of Doxorubicin resistance
Experimental: Cell proliferation IC50s and MDR reversal EC50s were determined from 3-day dose-response curves carried out in triplicate in 96-well plates essentially as described by Monks et al. (J. Natl. Cancer Inst., 83:757-66, 1991). […] After a 2 h incubation for non-adherent cells and overnight incubation for adherent cells, the initial cell density was determined by fluorescence readout of Alamar Blue metabolism. […] Final cell density was determined with Alamar Blue. […]
assay-metric: pEC50
pEC50 here: minus log base 10 of the concentration, concentration in moles per litre.

[Q] Can you look up the measured pEC50 of CCOC/C=C/c1ccc(-c2nc(-c3ccc(NC(C)C)cc3)c(-c3ccc(NC(C)C)cc3)[nH]2)cc1 for me?
[A] 7.89

---

assay: in vivo; details: male, Sprague Dawley, rat, Concentration of Saquinavir in plasma, 1 hr Post-Dose, Mean
assay-metric: concentration at 1 hr
Field: value (include unit after the number)

[Q] Can you look up the measured concentration at 1 hr of CC(C)(C)NC(=O)[C@@H]1C[C@@H]2CCCC[C@@H]2CN1C[C@@H](O)[C@H](Cc1ccccc1)NC(=O)[C@H](CC(N)=O)NC(=O)c1ccc2ccccc2n1 [Saquinavir] for me?
[A] 99.5 ng/mL

---

experiment: Enhancement of the oral bioavailability of paclitaxel and docetaxel in rats; assay type: in vivo; conditions: male, Sprague-Dawley, rat, plasma, 10 mg/kg, Drug alone (10 mg/kg) oral, control of the OCFB series
assay-metric: Cmax (ng/mL)
All answers are understood in ng/mL, so give the number only.

smi | endpoint-value
CC(=O)O[C@H]1C(=O)[C@@]2(C)[C@H]([C@H](OC(=O)c3ccccc3)[C@]3(O)C[C@H](OC(=O)[C@H](O)[C@@H](NC(=O)c4ccccc4)c4ccccc4)C(C)=C1C3(C)C)[C@]1(OC(C)=O)CO[C@@H]1C[C@@H]2O | 99

// next item, Cmax requested
[Q] Can you look up the measured Cmax of CC(=O)O[C@@]12CO[C@@H]1C[C@H](O)[C@@]1(C)C(=O)[C@H](O)C3=C(C)[C@@H](OC(=O)[C@H](O)[C@@H](NC(=O)OC(C)(C)C)c4ccccc4)C[C@@](O)([C@@H](OC(=O)c4ccccc4)[C@H]21)C3(C)C for me?
[A] 37

---

target: human CYP3A4 (Homo sapiens); experiment: Inhibition of CYP3A4-mediated paclitaxel metabolism; type: in vitro ADME
Sequence (P08684 whole entry): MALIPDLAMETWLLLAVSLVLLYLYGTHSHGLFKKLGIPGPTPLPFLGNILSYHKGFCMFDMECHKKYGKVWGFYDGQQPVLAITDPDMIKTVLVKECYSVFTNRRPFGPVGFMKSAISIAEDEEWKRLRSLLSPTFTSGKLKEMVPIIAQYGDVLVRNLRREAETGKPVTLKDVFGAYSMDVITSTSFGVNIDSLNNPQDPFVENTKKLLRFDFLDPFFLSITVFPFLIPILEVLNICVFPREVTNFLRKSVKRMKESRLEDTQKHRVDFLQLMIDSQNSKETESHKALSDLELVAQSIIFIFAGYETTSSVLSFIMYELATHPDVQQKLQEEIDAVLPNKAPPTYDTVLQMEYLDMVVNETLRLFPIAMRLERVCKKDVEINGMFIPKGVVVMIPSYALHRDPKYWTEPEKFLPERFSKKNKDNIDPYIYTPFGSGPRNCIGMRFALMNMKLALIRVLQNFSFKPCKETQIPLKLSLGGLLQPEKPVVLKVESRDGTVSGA
assay-metric: pKi
pKi here: minus log base 10 of the concentration, concentration in moles per litre.

[Q] Can you look up the measured pKi of CCOC/C=C/c1ccc(-c2nc(-c3ccc(NC(C)C)cc3)c(-c3ccc(NC(C)C)cc3)[nH]2)cc1 for me?
[A] 4.40

---

system: MES-SA/DX5; experiment: Reversal of MDR in P-gp-expressing cell line; assay type: cell-based; conditions: Homo sapiens; MES-SA/DX5 uterine; ± SD; read-out: Formula 2 compound EC50, reversal of Vinblastine resistance
assay-metric: pEC50
pEC50 here: minus log base 10 of the concentration, concentration in moles per litre.

[Q] Can you look up the measured pEC50 of CCOC/C=C/c1ccc(-c2nc(-c3ccc(NC(C)C)cc3)c(-c3ccc(NC(C)C)cc3)[nH]2)cc1 for me?
[A] 7.47
